System: RXF 393 renal
measurementProtocol: NCI tumour cell line growth inhibition, 48 h; in the data active = GI50 below about 0.43 µM; inactive = the rest
The reply should be one of these categories: 1 = active, 0 = inactive

Per the assay record, what outcome was assigned to CC1=C(Nc2ccc(N3CCN(C)CC3)cc2)C(=O)c2cncnc2C1=O ?
0

Similarly, COc1ccc(N=N/C(C(=O)C(F)(F)F)=C(\O)c2ccc(Cl)cc2)cc1 ?
0

Item: COc1ccc(N(C)c2nc(N)nc3sc4c(c23)CCCC4)cc1
1

Also, COc1cc(-c2nn(-c3cccc(NC(=O)c4ccc(Cl)c(C(F)(F)F)c4)c3)cc2-c2ccncc2)ccc1Cl please.
0

Thanks! And O=[N+]([O-])c1cccc(C2CC(c3ccccc3)=Nc3ccccc3S2)c1 (stereo unspecified) ?
0

Can you check C=CC(=O)N1CC2(CC(n3nc(-c4ccc5c(cnn5C)c4)c(-c4c(Cl)c(C)cc5[nH]ncc45)c3C)C2)C1 next?
0

---

Tested on: SK-OV-3 ovarian
measurementProtocol: NCI tumour cell line growth inhibition, 48 h
quantity: TGI (µM)
Please give a number only; it is taken to be in µM.

Recorded TGI for CCN1CCN(C(=O)[C@]23CCC(C)(C)C[C@@H]2C2=CC[C@@H]4[C@@]5(C)C/C(=C/c6ccncc6)C(=O)C(C)(C)[C@@H]5CC[C@@]4(C)[C@]2(C)CC3)CC1 , please?
4.41

What would you report for C=CC(=O)N1CC2(CC(n3nc(-c4ccc5c(cnn5C)c4)c(-c4c(Cl)c(C)cc5[nH]ncc45)c3C)C2)C1 ?
18.2

Same question for COC(=O)CSSCc1ccc([N+](=O)[O-])cc1 please.
46.8

Also O=C1C(CN2CCOCC2)CCCC1CN1CCOCC1 (configuration not stated) ?
51.8

Same question, Cc1c(/C=N/N(C)C)oc2c1cc(O)c1ncccc12 this time
71.7

---

System: OVCAR-5 ovarian
measurementProtocol: NCI tumour cell line growth inhibition, 48 h
quantity: TGI

Give its TGI value. Item: Cc1nc2c(=S)n(C)ncc2[nH]1
> 100 µM

And the next one, CN(C)c1cc[n+](-c2nc(/N=C(\[O-])C(F)(F)F)nc3c2ncn3C2CC(O)C(CO)O2)cc1 (centres undefined) ?
> 100 µM

Ok, now CSC1NC(c2ccc(Cl)cc2)=C(C#N)C(=O)N1C1OCC(OC(C)=O)C(OC(C)=O)C1OC(C)=O (centres undefined)
> 100 µM

Now consider CC(C)(C)OC(=O)NCCCCC(NC(=O)c1ccccc1)C(N)=O (centres undefined) .
> 100 µM

Okay, and Cc1cc(N2CCN(C)CC2)n2nc(-c3ccc(Cl)cc3)nc2n1 ?
> 100 µM

Now the same for COc1nnc2ccc(N3CCC(c4ccc(OCCN5CCN(C)C(=O)[C@H]5C)cc4)CC3)nn12
> 100 µM

Same read-out for COc1cc(N(Cc2ccc3oc(=O)c(-c4ccccc4)nc3c2)Cc2ccc3oc(=O)c(-c4ccccc4)nc3c2)cc(OC)c1OC ?
> 10 µM

Now give it for C[Si](C)(c1ccccc1)[C@H]1CCCC=C1CCNC1c2ccccc2CCc2ccccc21 too.
> 100 µM

// next record Nc1ncnc2c1ncn2C1CC(OCc2ccccc2[N+](=O)[O-])C(CO)O1 (centres undefined)
> 50 µM

---

Provide the reported TGI of each item.
System: SK-MEL-2 melanoma
measurementProtocol: NCI tumour cell line growth inhibition, 48 h
Give the quantity in µM, number only.

Could you tell me which TGI is on file for CC(=O)c1c(C)[nH]c(-c2nc3ccc(N4CCN(C)CC4)cc3[nH]2)c1-c1ccccc1 ?
22.2

What do we get for CN(CCCNC(=O)CCOCCOCCOCCNC(=O)Cc1ccc2ccc3cccc4ccc1c2c34)CCCNc1cc(-c2ccc3ccccc3c2)nc2ccccc12 ?
13.2

Moving on to CCN1CCN(C(=O)[C@]23CCC(C)(C)C[C@@H]2C2=CC[C@@H]4[C@@]5(C)C/C(=C/c6ccncc6)C(=O)C(C)(C)[C@@H]5CC[C@@]4(C)[C@]2(C)CC3)CC1
3.33

Subsequent entry: CN1CSC(=S)N(Cc2ccccc2)C1
18.2

And COC(=O)CSSCc1ccc([N+](=O)[O-])cc1 ?
42.4

---

Please go through the items and note down their TGI.
Tested on: ACHN renal
measurementProtocol: NCI tumour cell line growth inhibition, 48 h
Your answer should be a plain number; it is taken to be in µM.

Name the recorded TGI for CSC(=Nc1ccccc1)/N=C(\SCc1ccccc1)N(C)C .
2.39

Cool, now CCc1ccccc1NNc1cc(=O)[nH]c(=O)[nH]1
32.7

For COc1cccc(/C=N/[N-]C(N)=O)c1[O-].[Cu+2].[OH3+].c1ccc(-c2ccccn2)nc1 then?
98.9

Lookup CCC(=O)c1c(C(F)(F)F)n([O-])c2cc(F)c(F)cc2[n+]1=O
2.66

Follow-up item: O=C1C(CN2CCOCC2)CCCC1CN1CCOCC1 (configuration not stated)
3.53

---

Provide the recorded TGI for the entries that follow.
System: ACHN renal
measurementProtocol: NCI tumour cell line growth inhibition, 48 h

Could you share what TGI was measured for COc1ccc(C(OCC2OC(n3ccc(NC(=O)c4ccccc4)nc3=O)CC2OP2(=S)SCCS2)(c2ccccc2)c2ccc(OC)cc2)cc1 (centres undefined) , tested on ACHN renal?
61.5 µM

Try this compound too: O=C(CCc1ccccc1)ON1C(=S)C(c2ccccc2)(c2ccccc2)N=C1Sc1ccccc1
> 100 µM

Entry to check: O=C(CC(Cl)=C(Cl)Cl)c1cccc(Cl)c1Cl
> 100 µM

Please answer likewise for COc1ccc(N=N/C(C(=O)C(F)(F)F)=C(\O)c2ccc(Cl)cc2)cc1
> 100 µM

---

Test system: UO-31 renal
measurementProtocol: NCI tumour cell line growth inhibition, 48 h
quantity: GI50

# lookup: GI50 of O=C(Nc1nc2ccccc2s1)Nc1ccc([N+](=O)[O-])cc1Cl
2240 nM

What do you have for CC1=C(Nc2ccc(N3CCN(C)CC3)cc2)C(=O)c2cncnc2C1=O ?
13900 nM

And for N#CC1c2ccccc2C=CN1C(=O)N(c1ccccc1)c1ccccc1 (stereo not drawn) ?
1490 nM

---

Field: GI50. Provide a value for each of the compounds that follow.
System: NCI/ADR-RES ovarian
measurementProtocol: NCI tumour cell line growth inhibition, 48 h

For the record COc1ccc(N=N/C(C(=O)C(F)(F)F)=C(\O)c2ccc(Cl)cc2)cc1 , what value of GI50 is listed for NCI/ADR-RES ovarian?
3.56 µM

Quick one: CCCCCCCCCCCCCC[C@@H](O)[C@H]1CC[C@H]([C@H]2CC[C@H]([C@H](O)CCCCCC[C@@H](O)CC3=C[C@H](C)OC3=O)O2)O1
0.676 µM

Same again, this time with CC1=C(Nc2ccc(N3CCN(C)CC3)cc2)C(=O)c2cncnc2C1=O
3.09 µM

Try CN1C(=O)C2(c3ccccc31)N(c1ccc(Cl)cc1)C(=O)C2(c1ccccc1)c1ccccc1 (stereo not given) next.
34.7 µM

Here is the next compound: COc1cc(-c2nn(-c3cccc(NC(=O)c4ccc(Cl)c(C(F)(F)F)c4)c3)cc2-c2ccncc2)ccc1Cl
1.18 µM

// same read-out, input: c1cc2c(cn1)Nc1ccncc1S2
37.1 µM

# iterate: COc1cc2cc(Oc3ccc(NC(=O)Nc4ccc(Cl)c(Cl)c4)cc3)c(C)nc2cc1OC
2.6 µM

How about this compound: CC(=O)c1c(C)[nH]c(-c2nc3ccc(N4CCN(C)CC4)cc3[nH]2)c1-c1ccccc1
2.48 µM

Another compound: CCC(=O)c1c(C(F)(F)F)n([O-])c2cc(F)c(F)cc2[n+]1=O
0.822 µM

Ok, now N=c1c2c(=N)n3c(nc2nc2n1-c1ccccc1Sc1ccccc1-2)sc1cc(Cl)ccc13
1.84 µM

---

Tested on: MDA-MB-435
Select the matching outcome among 1.0 (active), 0.0 (inactive)

What did this assay record as the result for COc1ccc2c(OCc3nnc4ccc(-c5ccccc5)nn34)ccnc2c1 ?
0.0

Quick one: O=C1/C=C/[C@@H](O)[C@@H]2C[C@@H](O)C[C@H]2/C=C/CCC[C@H](C(F)(F)F)O1
1.0

Now consider COc1cc2nc3cc([N+](=O)[O-])ccc3c(NCCNCC(C)(C)O)c2cc1OC and answer again.
0.0

Now try C#CCOc1ccc2ncnc(Nc3ccc(NC(=O)C=C)cc3)c2c1 .
0.0

Record: CSc1ccc2c(c1)C(N1CCN(C)CC1)Cc1ccccc1S2 (stereo not given)
0.0

---

Consider the following molecules; for each one, report its TGI.
Test system: KM12 colon
measurementProtocol: NCI tumour cell line growth inhibition, 48 h

Any idea what its TGI is? The molecule is CN(Cc1cnc2nc(N)nc(N)c2n1)c1ccc(C(=O)NC(CCC(=O)O)C(=O)O)cc1Br (stereo unspecified)
11.6 µM

Entry CC(=O)OC1COC(n2c(=S)n(-c3ccccc3)c(=O)c3ccccc32)C(OC(C)=O)C1OC(C)=O (stereo unspecified) please
> 100 µM

Repeat for the following molecule: COc1cc(-c2ccccc2N)c2cccnc2c1OC
24.3 µM

Same thing, different molecule: CCOC(=O)COc1ccc2c(C)cc(=O)oc2c1
> 100 µM

Also, N#CC1c2ccccc2C=CN1C(=O)N(c1ccccc1)c1ccccc1 (stereo unspecified) please.
19.3 µM

Similarly, O=C1c2cn[nH]c2C(c2ccccc2)N1c1ccccc1 (stereo unspecified) ?
> 10 µM

And the next one, COc1cccc(-c2cc(=O)c3ccccc3[nH]2)c1 ?
> 48.4 µM

What do we get for Cn1nc(-c2ccccc2)c2c(/C=C/c3ccccc3)onc2c1=O ?
> 100 µM

Now consider O=C(NNc1ccccc1)/C(=C/c1ccc2c(c1)OCO2)NC(=O)c1ccccc1 and answer again.
> 100 µM

# iterate: O=C(OCC(Cl)(Cl)Cl)O[C@@H]1CCCC1(c1ccccc1)c1ccccc1
> 100 µM

Repeat for the following molecule: CCc1nc(N)nc(N)c1-c1ccc(N2CCNCC2)cc1
> 100 µM
